molecular target: human ether-à-go-go-related gene (hERG) potassium channel (human, UniProt Q12809); assay: primary screen, population patch clamp on CHO cells stably expressing hERG; higher = less effect of the substance;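 note: peak tail current of the secondary pulse compared with the same well before compound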
Sequence (Q12809 whole entry, looked up): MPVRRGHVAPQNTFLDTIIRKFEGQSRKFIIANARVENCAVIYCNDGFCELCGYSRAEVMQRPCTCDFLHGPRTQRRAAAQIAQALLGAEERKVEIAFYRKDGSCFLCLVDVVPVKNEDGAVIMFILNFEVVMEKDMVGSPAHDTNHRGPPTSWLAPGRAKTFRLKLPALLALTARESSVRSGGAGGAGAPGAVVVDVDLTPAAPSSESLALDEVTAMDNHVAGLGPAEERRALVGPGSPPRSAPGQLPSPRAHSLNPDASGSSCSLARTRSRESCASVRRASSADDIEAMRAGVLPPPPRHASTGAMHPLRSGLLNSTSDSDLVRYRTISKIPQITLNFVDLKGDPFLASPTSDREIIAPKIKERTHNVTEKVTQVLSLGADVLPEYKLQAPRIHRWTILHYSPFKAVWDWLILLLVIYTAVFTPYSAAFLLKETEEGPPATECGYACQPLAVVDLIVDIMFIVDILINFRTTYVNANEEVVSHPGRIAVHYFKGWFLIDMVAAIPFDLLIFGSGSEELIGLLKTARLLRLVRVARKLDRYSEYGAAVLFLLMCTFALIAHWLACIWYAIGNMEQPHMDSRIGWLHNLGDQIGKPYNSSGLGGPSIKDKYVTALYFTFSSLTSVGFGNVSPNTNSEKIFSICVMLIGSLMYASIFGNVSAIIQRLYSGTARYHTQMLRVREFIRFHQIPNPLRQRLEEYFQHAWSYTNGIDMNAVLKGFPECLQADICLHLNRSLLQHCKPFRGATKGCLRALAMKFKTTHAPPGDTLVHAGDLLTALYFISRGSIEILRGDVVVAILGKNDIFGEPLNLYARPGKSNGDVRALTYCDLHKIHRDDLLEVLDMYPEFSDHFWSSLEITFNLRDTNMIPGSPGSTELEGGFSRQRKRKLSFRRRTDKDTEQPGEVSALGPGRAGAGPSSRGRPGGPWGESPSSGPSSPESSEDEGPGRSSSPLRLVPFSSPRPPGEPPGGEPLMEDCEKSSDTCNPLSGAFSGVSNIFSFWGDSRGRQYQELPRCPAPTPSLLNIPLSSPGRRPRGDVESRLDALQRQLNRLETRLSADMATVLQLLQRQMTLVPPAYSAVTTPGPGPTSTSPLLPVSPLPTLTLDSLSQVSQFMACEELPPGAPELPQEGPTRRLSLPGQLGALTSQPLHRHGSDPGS
Among all 310,000 compounds or so, about 14,000 (4.5%) showed an effect of 50% or more. Effects have a minus sign here. The sample as a whole holds a higher share of strong results than the screen did.
Measure name: hERG current change (%, negative = inhibition) at 10uM

>>> value("Cc1oc(-c2ccccc2)nc1CS(=O)CC(=O)O (stereo not drawn)")
"10.2%"
>>> value("CC(C)Cn1cnc2c(c(-c3ccccc3)c(-c3ccccc3)n2Cc2ccco2)c1=N")
"-73.3%"
>>> value("COc1cccc2[nH]c3c(N4CCc5ccccc5C4)ncnc3c12")
"4.69%"
>>> value("O=c1c2ccccc2nc(-c2ccccc2)n1Cc1ccco1")
"-30.5%"
>>> value("CC1(C)Cc2c(sc3c2c(=N)n(Cc2ccco2)c(=O)n3Cc2ccccc2)CO1")
"-12.5%"
>>> value("N=c1c2c(-c3ccccc3)c(-c3ccccc3)n(Cc3ccco3)c2ncn1Cc1ccccc1")
"-69.3%"
>>> value("O=C(COc1ccc(Br)cc1F)NC1CCN(Cc2ccccc2)CC1")
"-74%"
>>> value("Cc1ccc(Cl)c(OCC(=O)NC2CCN(Cc3ccccc3)CC2)c1")
"-115%"
>>> value("O=C(COc1ccc(Br)cc1Cl)NC(=O)NC1CCCC1")
"-9.03%"
>>> value("N=c1c2c(-c3ccccc3)c(-c3ccccc3)oc2ncn1Cc1ccco1")
"0.861%"
>>> value("COc1cc(CC(NC(C)=O)C(=O)NC2CCN(S(=O)(=O)c3ccc(NC(C)=O)cc3)CC2)cc(OC)c1 (stereo not drawn)")
"21.7%"
>>> value("CN(C)CC/C=C1/c2ccc(F)cc2Sc2ccc(Cl)cc21.Cl")
"5.06%"

----------
molecular target: human ether-à-go-go-related gene (hERG) potassium channel (human, UniProt Q12809); assay: primary screen, population patch clamp on CHO cells stably expressing hERG; higher = less effect of the substance;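 note: peak tail current of the secondary pulse compared with the same well before compound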
About 14,000 (4.5%) of roughly 310,000 compounds showed an effect of 50% or more. Effects have a minus sign here. The sample as a whole holds a higher share of strong results than the screen did.
This section presents compounds with their documented hERG current change (%, negative = inhibition) at 10uM values.
Measure name: hERG current change (%, negative = inhibition) at 10uM (%)

>>> value("O=C(NCc1ccccc1Cl)C1CCCN(c2ncnc3c2nc2n3CCCCC2)C1 (stereo not shown)")
-60.8
>>> value("O=C(Nc1cccnc1)C1CCCN(c2ncnc3c2nc2n3CCCCC2)C1 (stereo not shown)")
-36
>>> value("O=Cc1cc([N+](=O)[O-])ccc1N1CCOCC1")
-19.3
>>> value("COc1cccc(CNC(=O)C2CCCN(c3ncnc4c3nc3n4CCCCC3)C2)c1 (stereo not shown)")
-55.6
>>> value("COc1cc(CN2CCC(Cc3ccccc3)CC2)cc(OC)c1OC.O=C(O)C(=O)O")
-52.8
>>> value("COc1ccc(OC)c(CN2CCN(C(=O)c3cccc4ccccc34)CC2)c1.O=C(O)C(=O)O")
-2.37
>>> value("O=C(CN1CCCCC1)Nc1cccc(Oc2ccccc2)c1")
-50.7
>>> value("CCN1CCN(c2ccc([N+](=O)[O-])cc2C=C2C(=O)NC(=O)NC2=O)CC1")
-66.3
>>> value("O=C1CC(N2CCN(S(=O)(=O)c3ccccc3)CC2)C(=O)N1c1ccccc1 (stereo not shown)")
1.87
>>> value("O=C(NCC1CCN(Cc2ccccc2F)CC1)C1CCCN(c2ncnc3c2nc2n3CCCCC2)C1 (stereo not shown)")
-8.94
>>> value("NC(=O)C1(N2CCCCC2)CCN(CC(=O)Nc2ccc(Oc3ccccc3)cc2)CC1")
-67.8
>>> value("COc1cccc(NC(=O)CN2CCCCCC2)c1.Cl")
11.6
>>> value("CC(=O)N1CCN(C(=S)c2cccc([N+](=O)[O-])c2)CC1")
8.96
>>> value("COc1ccc(C(=O)N2CCN(Cc3cc(OC)ccc3OC)CC2)cc1.O=C(O)C(=O)O")
-36
>>> value("CCOc1cc(S(=O)(=O)N(CC)CC)ccc1Br")
-11.8
>>> value("COc1cc(CN2CCC(Cc3ccccc3)CC2)cc([N+](=O)[O-])c1O")
0.943
>>> value("COc1ccc(CNC(=O)C2CCCN(c3ncnc4c3nc3n4CCCCC3)C2)cc1 (stereo not shown)")
-37.6
>>> value("COc1ccc(CN2CCNC(=O)C2CC(=O)NC2CCCCCCC2)cc1C (stereo not shown)")
15.8
>>> value("COc1ccc(CN2CCC(Cc3ccccc3)CC2)cc1OC.O=C(O)C(=O)O")
-70.3
>>> value("Cc1ccc(C(=O)NC2CCCC(C)C2C)cc1S(=O)(=O)N1CCCCC1 (stereo not shown)")
-20.6
>>> value("O=C1NC(=O)C(=Cc2cc([N+](=O)[O-])ccc2N2CCCCC2)C(=O)N1")
7.84
>>> value("COc1cc(CN2CCN(C(=O)Cc3ccccc3)CC2)cc(OC)c1OC.O=C(O)C(=O)O")
-0.522
>>> value("CC1CCCCN1CC(=O)Nc1ccc2c(c1)OCO2.O=C(O)C(=O)O (stereo not shown)")
-20.1
>>> value("N/C(=N\\O)c1ccccc1-n1cccc1")
25.7
>>> value("COc1ccc(/C=N\\NC(=O)c2ccc(=O)[nH]n2)cc1O")
18.4
>>> value("COc1ccc(NC(=O)CN2CCC(C(N)=O)(N3CCCCC3)CC2)cc1")
0.362
>>> value("CCc1cc(=O)oc2cc(C)c3c(C)coc3c12")
16.3
>>> value("O=C(NCc1cccc(Cl)c1)C1CCCN(c2ncnc3c2nc2n3CCCCC2)C1 (stereo not shown)")
-73.5
>>> value("COc1cccc(CNC(=O)C2CCN(c3ncnc4c3nc3n4CCCCC3)CC2)c1")
16.7
>>> value("O=C(NCC1CCN(Cc2cccc(Cl)c2)CC1)C1CCCN(c2ncnc3c2nc2n3CCCCC2)C1 (stereo not shown)")
-44.5
>>> value("CC1CCN(CC(=O)Nc2ccc(N3CCCCCC3)cc2)CC1.O=C(O)C(=O)O")
-14.1
>>> value("COc1ccc(OC)c(CN2CCN(Cc3cccc4ccccc34)CC2)c1.O=C(O)C(=O)O")
-65.2
>>> value("O=C(Nc1ccccc1Cl)C1CCCN(c2ncnc3c2nc2n3CCCCC2)C1 (stereo not shown)")
-59.4
>>> value("CC(=O)N1c2ccc([N+](=O)[O-])cc2NC(=O)CC1C (stereo not shown)")
22.2
